Provide the reported pIC50 of each item.
tested on: SK-N-MC; test: Antiproliferative activity against human SK-N-MC cells after 96 hrs by MTT assay; assay type: functional, cell-based
Answers are plain numbers, as −log10 of the molar value.

{"columns": ["compound", "pIC50"],
 "data": [
  ["CN(C)C(=S)NN=C(c1ccccn1)c1ccccn1", 8.00]
]}

Switching to the query record.
compound CC(=O)N(O)CCCCCNC(=O)CCC(=O)N(O)CCCCCNC(=O)CCC(=O)N(O)CCCCCN [DEFEROXAMINE] , pIC50 observed: 5.07
